Recorded TGI for the following compounds
Test system: PC-3 prostate
methodDescription: NCI tumour cell line growth inhibition, 48 h

compound: COc1ccc(Cn2c3ccc([N+](=O)[O-])cc3c(=O)n2Cc2ccccn2)cc1
TGI: > 100 µM
--
compound: CCOC1NC(/N=C/c2ccc(OC)cc2)=C(C#N)C1C#N (centres undefined)
TGI: > 100 µM
--
compound: COc1ccc(C(=O)/C=C/c2cc(-c3ccc4c(c3)OCO4)n[nH]2)cc1OC
TGI: 18.2 µM
--
compound: O=C(Cc1csc2nc(-c3ccc(Br)cc3)cn12)N/N=C/c1ccc(Cl)cc1Cl
TGI: > 100 µM
--
compound: O=C(N[C@H]1CCC[C@H]1C(=O)Nc1ccc(C(F)(F)F)cc1)OCc1ccccc1
TGI: > 100 µM
--
compound: COc1ccc(-c2nnc(SCC(=O)Nc3ccc(C(=O)/C=C/c4cc(OC)c(OC)c(OC)c4)cc3)n2-c2ccccc2)cc1OC
TGI: > 10 µM
--
compound: CC1CCOc2ccc(cc2)C=Nc2ccc(cc2)-c2ccc(cc2)N=Cc2ccc(cc2)OCC1 (centres undefined)
TGI: > 100 µM
--
compound: O=C(Cc1ccc(Nc2ccnc(C(F)(F)F)c2)cc1)Nc1cc(Cl)ccc1O
TGI: 12.4 µM
--
compound: CCOC(=O)C1=C(c2ccccc2)C12N(Cc1ccccc1)C(=O)C2(c1ccccc1)c1ccccc1 (centres undefined)
TGI: 75.5 µM
--
compound: O=C(Nc1ccc(Oc2ccc(NC(=O)Nc3ccc([N+](=O)[O-])cc3)cc2)cc1)Nc1ccc([N+](=O)[O-])cc1
TGI: > 22.8 µM
--
compound: O=C(O)c1cn(C2CC2)c2cc(N3CCNCC3)c(F)cc2c1=O
TGI: > 100 µM
--
compound: COc1cc([C@@H]2c3cc4c(cc3[C@@H](c3c(O)cc(O)c5c3O[C@H](c3ccc(O)c(O)c3)[C@H](OC(=O)c3cc(O)c(O)c(O)c3)C5)[C@H]3COC(=O)[C@H]23)OCO4)cc(OC)c1O
TGI: > 100 µM
--
compound: O=C1CCSC(=S)N1c1ccc(Br)c(Cl)c1
TGI: > 100 µM
--
compound: CC1C(C#N)(C#N)C(C#N)=C(N)C1(C)[N+](=O)[O-] (centres undefined)
TGI: > 100 µM
--
compound: CC(=O)OCC1OC(n2c(N)c(C#N)c(-c3cccc(Cl)c3)c(C#N)c2=S)C(OC(C)=O)C(OC(C)=O)C1OC(C)=O (centres undefined)
TGI: > 100 µM
--
compound: NC(=O)c1sc(-n2cnc3ccc(C(F)(F)F)cc32)cc1OCc1ccccc1Br
TGI: > 25 µM
--
compound: Cc1cc2oc3c(ccc(=O)n3C)c(=O)c2c(C)c1Cl
TGI: > 100 µM
--
compound: CC1=CC(=O)/C(=C/n2c(=S)[nH]c3cc(C)ccc32)C(=O)O1
TGI: > 100 µM
--
compound: CO[C@]12CC(=O)C3(C(C[C@H]4CC5CC[C@H]6C[C@@H](OC(C)=O)CC[C@]6(OC(C)=O)C5C[C@@]43C)C1)C1C[C@H]3[C@@H]4CC[C@H]5C[C@@H](OC(C)=O)CC[C@]5(OC(C)=O)[C@H]4CC[C@]3(C)C12 (some centres undefined)
TGI: > 100 µM
--
compound: CCOC(=O)c1ccccc1SC(C[N+](=O)[O-])c1ccccc1 (centres undefined)
TGI: 16.6 µM
--
compound: O=C(c1ccco1)c1nc2cc(C(F)(F)F)ccc2[n+]([O-])c1C(F)(F)F
TGI: > 100 µM
--
compound: Oc1ccc2ccccc2c1N=Nc1ccc(Cl)cc1
TGI: > 100 µM
--
compound: Clc1ccc2nc(Cl)c3ccccc3c2c1
TGI: > 100 µM
--
compound: COc1cnc2c(c1)C(=O)c1c-2n(CCCNCCN2CCOCC2)c(=O)c2cc([N+](=O)[O-])ccc12
TGI: 13 µM
--
compound: Cc1ccc(N=C2SC(=NN(C)C)SC2=Nc2ccc(C)cc2)cc1
TGI: > 100 µM
--
compound: CCOC(=O)c1ccc(N(C=O)CCC(=O)CCl)cc1
TGI: 14.8 µM
--
compound: O=C1C(Br)=C(Br)C(=O)c2ccccc21
TGI: 31.7 µM
--
compound: C[C@@H](Oc1cc(-n2cnc3ccc(OCC4CCN(C)CC4)cc32)sc1C(N)=O)c1ccccc1Cl
TGI: 4.42 µM
--
compound: O=C(NO)c1ccc(Cn2c(=O)n(-c3ccccc3)c(=O)c3ccccc32)cc1
TGI: 4.53 µM
--
compound: CCSc1ccc([C@@H]2[C@@H](N)C(=O)N2c2cc(OC)c(OC)c(OC)c2)cc1
TGI: > 100 µM
--
compound: C[C@@]12C[C@@H](c3ccccc3O1)N1Cc3ccccc3CSC1=N2
TGI: > 100 µM
--
compound: COC12C=CC(CC1)C(C)(C)C2OS(C)(=O)=O (centres undefined)
TGI: > 100 µM
--
compound: O=C1O[C@H]2C3C4CCC(C4[C@@H]2I)[C@H]13 (some centres undefined)
TGI: > 100 µM
--
compound: Cc1ccc2c(=O)cc(Cc3csc4ccccc34)[nH]c2n1
TGI: > 100 µM
--
compound: C=CCOCn1ccc(N)nc1=O
TGI: > 100 µM
--
compound: CC(=O)OCC1OC(SC2=NC(=O)/C(=C/c3ccccc3)S2)C(OC(C)=O)C(OC(C)=O)C1OC(C)=O (centres undefined)
TGI: > 100 µM
--
compound: CC(C)(C)OC(=O)n1c(Cl)c(C=O)c2ccccc21
TGI: 64.6 µM
--
compound: O=S(c1ccc(Cl)cc1)c1ccccc1C1=NCCN1 (centres undefined)
TGI: > 100 µM
--
compound: Fc1cccc(Cl)c1Cn1c(-c2c(F)cccc2Cl)nc2ccccc21
TGI: 55.3 µM
